measurement_target: SMYD3 (Homo sapiens, UniProt Q9H7B4)
procedure_details: SMYD3 biochemical assay (MTase-Glo, MAP3K2 peptide substrate)
assay_conditions: Table 3; MTase assay, MAP3K2 peptide substrate; read-out: IC50
pIC50: −log10 of the molar value.
readout_label: pIC50

Field: example entries. Status: answers known.
CNC(=O)c1ccc(-c2cc(Cl)c3ccc(C(=O)N4CCN(C(=O)OCC(C)C)CC4)cc3n2)cc1; 6.00
CCCOC(=O)N1CCN(C(=O)c2ccc3c(Cl)c4c(nc3c2)CC(c2ccccn2)CC4)CC1 (centres unmarked) [A053]; 6.62
CCCOC(=O)N1CCN(C(=O)c2ccc3c(Cl)c4c(nc3c2)CC(c2ccc(C)cn2)CC4)CC1 (centres unmarked); 6.89
CCCOC(=O)N1CCN(C(=O)c2ccc3c(Cl)c4c(nc3c2)CCCC4)CC1CO (centres unmarked); 5.92

(1) CNC(=O)c1ccc(-c2cc(Cl)c3ccc(C(=O)N4CCN(C(=O)OCCCF)[C@H](C)C4)cc3n2)cc1
(2) CCCOC(=O)N1CCN(C(=O)c2ccc3c(Cl)c(C)c(-c4cccc(C(N)=O)c4)nc3c2)CC1
(3) CCCOC(=O)N1CCN(C(=O)c2ccc3c(Cl)cc(-c4ccc(-c5ccn[nH]5)cc4)nc3c2)CC1
(4) CCCOC(=O)N1CCN(C(=O)c2ccc3c(Cl)cc(-c4ccn(S(=O)(=O)N(C)C)c4)nc3c2)CC1
(Q) Sort (4 compounds) by pIC50: min first. State the ranking by listing the labels in the requested order.
(A) 2, 4, 3, 1

----------
measurement_target: SMYD3 (Homo sapiens, UniProt Q9H7B4)
Sequence (Q9H7B4 1-428): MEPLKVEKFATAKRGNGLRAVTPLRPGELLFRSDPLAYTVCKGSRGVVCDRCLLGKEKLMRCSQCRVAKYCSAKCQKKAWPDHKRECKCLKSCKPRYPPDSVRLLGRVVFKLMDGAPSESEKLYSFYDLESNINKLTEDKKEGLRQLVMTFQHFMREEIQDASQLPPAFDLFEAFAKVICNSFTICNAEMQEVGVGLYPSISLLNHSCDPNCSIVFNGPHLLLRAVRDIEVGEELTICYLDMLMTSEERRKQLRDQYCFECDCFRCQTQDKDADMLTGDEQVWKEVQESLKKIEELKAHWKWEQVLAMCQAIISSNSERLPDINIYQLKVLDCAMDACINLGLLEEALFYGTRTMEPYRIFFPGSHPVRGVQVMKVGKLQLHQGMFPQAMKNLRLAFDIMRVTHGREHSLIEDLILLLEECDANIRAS
procedure_details: SMYD3 biochemical assay (MTase-Glo, MAP3K2 peptide substrate)
assay_conditions: Table 3; MTase assay, MAP3K2 peptide substrate; read-out: IC50
pIC50: −log10 of the molar value.
readout_label: pIC50

CCCOC(=O)N1CCN(C(=O)c2ccc3c(Cl)c4c(nc3c2)CC(c2ccncc2)CC4)[C@@H](C)C1 (stereo partly drawn) [A092]; 6.96
NC1(c2ccc(-c3cc(Cl)c4ccc(C(=O)N5CCN(C(=O)c6cn(C7CC7)nn6)CC5)cc4n3)cc2)CC1 [D013]; 7.11
CCCOC(=O)N1CCN(C(=O)c2ccc3c(Cl)cc(-c4ccc5nn(C)cc5c4)nc3c2)CC1 [B127]; 7.68

(A) CCCOC(=O)N1CCN(C(=O)c2ccc3c(Cl)c4c(nc3c2)CCC(CCN)C4)[C@@H](C)C1 (stereo partly drawn) [A081]
(B) CCCOC(=O)N1CCN(C(=O)c2ccc3c(Cl)c(C)c(-c4ccc(OC)cc4)nc3c2)CC1 [B031]
(C) CCCOC(=O)N1CCN(C(=O)c2ccc3c(Cl)c(C)c(-c4ccc(CN)cc4)nc3c2)C[C@H]1C [B122]
(D) CCCOC(=O)N1CCN(C(=O)c2ccc3c(Cl)cc(-c4ccccn4)nc3c2)CC1 [B008]
(Q) Sort (4 compounds) by pIC50: min first. State the ranking by listing the labels in the requested order.
(A) D, B, A, C

(A) CCCOC(=O)N1CCN(C(=O)c2ccc3c(Cl)c4c(nc3c2)CC(CNC(=N)N)CC4)[C@@H](C)C1 (stereo partly drawn) [A090]
(B) CCCOC(=O)N1CCN(C(=O)c2ccc3c(Cl)cc(-c4ccc(C(N)=O)cc4)nc3c2)C[C@H]1C [B063]
(C) CCCOC(=O)N1CCN(C(=O)c2ccc3c(Cl)cc(-c4ccc(OC)c(CNC)c4)nc3c2)CC1 [B120]
(D) CCCOC(=O)N1CCN(C(=O)c2ccc3c(Cl)cc(-c4ccnn4C)nc3c2)[C@@H](C)C1 [B091]
(Q) Order the records by pIC50, with each subsequent value no larger than the one before. State the ranking by listing the labels in the requested order.
(A) C, B, A, D
(C: 7.46, B: 7.10, A: 6.46, D: 5.12)

(A) CCCOC(=O)N1CCN(C(=O)c2ccc3c(Cl)cc(-c4ccc5cnn(C)c5c4)nc3c2)CC1 [B195]
(B) CCCOC(=O)N1CCN(C(=O)c2ccc3c(Cl)cc(-c4ccc(N(C)C)cc4)nc3c2)C[C@H]1C [B060]
(Q) Which of the two gives a bigger number for pIC50: A or B ? In your reply, give the label of the chosen option.
(A) A
(A: 6.60, B: 6.38)

----------
measurement_target: UniProt Q9H7B4
procedure_details: SMYD3 biochemical assay (MTase-Glo, MAP3K2 peptide substrate)
assay_conditions: Table 3; MTase assay, MAP3K2 peptide substrate; read-out: IC50
pIC50: −log10 of the molar value.
readout_label: pIC50

Field: example entries. Status: answers known.
CCCOC(=O)N1CCN(C(=O)c2ccc3c(Cl)cc(-c4ccc(C(=O)NC)c(C)c4)nc3c2)CC1; 6.44
CCCOC(=O)N1CCN(C(=O)c2ccc3c(Cl)c4c(nc3c2)CCCC4)C(C)C1 (stereo not shown); 6.82

(a) C[C@@H]1CN(C(=O)c2ccc3c(Cl)cc(-c4cc(F)c(O)c(F)c4)nc3c2)CCN1C(=O)OCCCF
(b) CCCOC(=O)N1CCN(C(=O)c2ccc3c(Cl)c4c(nc3c2)CCCC4)CC1COC (stereo not shown)
(Q) Compare a and b and name the one whose reported pIC50 is smaller. In your reply, give the label of the chosen option.
(A) b

----------
measurement_target: SMYD3 (Homo sapiens, UniProt Q9H7B4)
Sequence (Q9H7B4 1-428): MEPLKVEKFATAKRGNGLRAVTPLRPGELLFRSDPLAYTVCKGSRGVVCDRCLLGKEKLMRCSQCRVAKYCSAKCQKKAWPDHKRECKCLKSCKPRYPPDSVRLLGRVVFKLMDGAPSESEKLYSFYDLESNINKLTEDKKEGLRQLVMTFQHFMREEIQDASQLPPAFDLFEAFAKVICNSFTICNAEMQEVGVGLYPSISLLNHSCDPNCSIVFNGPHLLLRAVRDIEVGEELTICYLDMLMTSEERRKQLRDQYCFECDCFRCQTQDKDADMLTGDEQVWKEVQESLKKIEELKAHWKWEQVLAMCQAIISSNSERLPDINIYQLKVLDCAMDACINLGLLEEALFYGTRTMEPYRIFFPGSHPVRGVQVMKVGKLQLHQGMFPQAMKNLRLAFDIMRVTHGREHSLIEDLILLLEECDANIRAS
procedure_details: SMYD3 biochemical assay (MTase-Glo, MAP3K2 peptide substrate)
assay_conditions: Table 3; MTase assay, MAP3K2 peptide substrate; read-out: IC50
pIC50: −log10 of the molar value.
readout_label: pIC50

CCCOC(=O)N1CCN(C(=O)c2ccc3c(Cl)cc(-c4ccn(C)n4)nc3c2)CC1; 5.76

(A) CCCOC(=O)N1CCN(C(=O)c2ccc3c(Cl)cc(-c4cccc5[nH]ncc45)nc3c2)CC1
(B) CCCCC(=O)N1CCN(C(=O)c2ccc3c(Cl)c4c(nc3c2)CCCC4)CC1
(C) CCCOC(=O)N1CCN(C(=O)c2ccc3c(Cl)c(C)c(-c4ccccc4)nc3c2)C[C@H]1C
(Q) Order the records by pIC50, with each subsequent value no larger than the one before. State the ranking by listing the labels in the requested order.
(A) C, A, B

----------
measurement_target: SMYD3 (Homo sapiens)
procedure_details: SMYD3 biochemical assay (MTase-Glo, MAP3K2 peptide substrate)
assay_conditions: Table 3; MTase assay, MAP3K2 peptide substrate; read-out: IC50
readout_label: IC50 (nM)

Field: example entries. Status: answers known.
CCCOC(=O)N1CCN(C(=O)c2ccc3c(Cl)c4c(nc3c2)CC(CCN2CCCC2)CC4)CC1 (centres unmarked) [A121]; 220
CCCOC(=O)N1CCN(C(=O)c2ccc3c(Cl)cc(CC)nc3c2)CC1 [C004]; 1400
CCCOC(=O)N1CCN(C(=O)c2ccc3c(Cl)cc(-c4ccc(C(=O)NC)c(F)c4)nc3c2)C[C@H]1C [B216]; 230
CCCOC(=O)N1CCN(C(=O)c2ccc3c(Cl)cc(-c4ccc(CN(C)C)cc4)nc3c2)C[C@H]1C [B098]; 130
CCCOC(=O)N1CCN(C(=O)c2ccc3c(Cl)cc(-c4cc[nH]c4)nc3c2)[C@@H](C)C1 [B254]; 54

(a) CCCOC(=O)N1CCN(C(=O)c2ccc3c(Cl)c4c(nc3c2)CC(c2ccccn2)CC4)C[C@@H]1C (some centres unmarked) [A073]
(b) C#CCC1CCc2c(nc3cc(C(=O)N4CCN(C(=O)OCCC)[C@H](C)C4)ccc3c2Cl)C1 (some centres unmarked) [A142]
(Q) Compare a and b and name the one whose reported IC50 is smaller. In your reply, give the label of the chosen option.
(A) a
(a: 150 nM, b: 420 nM)
